System: Malme-3M
Assay: NCI tumour cell line growth inhibition, 48 h
Activity calls are given as the source filed them. Cut-off read from the data, not from the text of the source: active = GI50 up to about 1.1 µM and inactive = higher.
Possible outcomes: active, inactive

[
  {
    "compound": "O=C(O)CCC(NC(=O)c1ccc(Nc2nc3cc(C(F)(F)F)ccc3nc2C(=O)O)cc1)C(=O)O (stereo not given)",
    "category": "inactive"
  },
  {
    "compound": "O=C1CSC(c2ccccc2O)N1c1ccc(Oc2ccc(Cl)cc2)c(Cl)c1 (stereo not given)",
    "category": "inactive"
  },
  {
    "compound": "CC(C)(C)OC(=O)n1c(-c2ccccc2F)cc(=O)c2cc3c(cc21)OCO3",
    "category": "active"
  },
  {
    "compound": "CC(=O)ON(C(C)=O)c1ccc(-c2nc3ccccc3s2)cc1C",
    "category": "inactive"
  },
  {
    "compound": "CC12CC(=O)Nc3ccccc3N1C(c1ccccc1)=NO2 (stereo not given)",
    "category": "inactive"
  }
]

The origin of these recorded values is ChEMBL document CHEMBL1201862.
